Target: NHERF4_4, Q86UT5
Sequence (Q86UT5 464-550): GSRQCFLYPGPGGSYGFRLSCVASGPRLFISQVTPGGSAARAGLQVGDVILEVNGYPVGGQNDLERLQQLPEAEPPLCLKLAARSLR
Test: holdup assay
Design: key: below the threshold = too weak to quantify, mostly under pKd 3.1 to 4
Settings: plain residues with an end cap or a label only (N-terminal biotin on a linker: ado-ado)
assay.endpoint: pKd

The following binders have reported results that may help.
| binder | result.value |
| --- | --- |
| TETASVCTKV [SLC23A1, Q9UHI7] | 3.89 |
| QKNKDKEYYV [NRXN3_rs746444206, Q9Y4C0] | below the threshold |
| GFGEERESIL [KIDINS220, Q9ULH0] | below the threshold |
| FVHPILQSAV [PRKCA, P17252] | below the threshold |

Turning now to a further binder:
What measured pKd goes with EEPEERHTEL [CES2, O00748] ? below the threshold
